system: PC-3 prostate; assay: NCI-60 one-dose screen, 48 h; conditions: 10 µM unless noted
The panel holds about 83,000 compounds, 20% with a hit somewhere; the sample as a whole holds those more often. Calls of active or inactive are those of the source. How the source made its calls: active means growth percent below 10; inactive means the rest.
Respond only with the outcome that fits, drawn from yes (1) = active, no (0) = inactive

Q. Which outcome did this test record for the compound CC(C)c1ccc(NC(=O)Nc2ccc(NC(=O)CCCC(=O)NOCc3ccccc3)cc2)cc1 ?
A. no (0)

Q. Which outcome did this test record for the compound COc1cc(-c2cc(-c3ccc(N(C)C)cc3)nc(N3CCC(O)CC3)c2C#N)cc(OC)c1OC ?
A. no (0)

Q. Which outcome did this test record for the compound CCCCNc1ccc(C#N)c(OCCN(CC)CC)c1 ?
A. no (0)

Q. Which outcome did this test record for the compound Fc1ccc2[nH]cc(-c3nonc3-c3c[nH]c4ccc(Br)cc34)c2c1 ?
A. no (0)

Q. Which outcome did this test record for the compound CCOC(=O)c1cnc2ccccc2c1Cl ?
A. no (0)

Q. Which outcome did this test record for the compound CCO/C=N/C1=C(C#N)C(c2ccc(OC)cc2)c2sc3c(F)cccc3c2O1 (stereo unspecified) ?
A. no (0)

Q. Which outcome did this test record for the compound O=C(c1cc2ccccc2o1)c1nn(-c2ccccc2)/c(=N/N=Cc2cn(-c3ccccc3)nc2-c2cc3ccccc3oc2=O)s1 ?
A. no (0)

Q. Which outcome did this test record for the compound O=C(CSc1nc2ccc([N+](=O)[O-])cc2[nH]1)Nc1ccc(F)cc1 ?
A. no (0)
